- Experiment Notes: qHTS Multiplex Assay to Identify Dual Action Probes in a Cell Model of Huntington: Aggregate Formation (GFP); note: nearly all actives have a fitted effect of over 60% in size
- Test Parameters: PC12 HttQ103-GFP aggregates, Acumen cytometry, 40 h; series mostly up to 9.22 µM
Among all 220,000 compounds or so, about 2,400 (1.1%) were called active. Inconclusive results (about 7%) are left out. Calls come from the whole dose curve; as a rule, active = well fitted inhibition curve with a large enough effect; inconclusive = small, poorly fitted or top-dose-only effect, or effect the other way; inactive = no such curve, though single readings can be large or run the other way. The entries come from a sample that favours actives as a whole.
Outcome codes: YES = active, NO = inactive

• CC(NC(=S)NNS(=O)(=O)c1ccc(C(C)(C)C)cc1)c1ccccc1 (centres undefined) = NO
• CCOc1cc(N2CCOCC2)c(OCC)cc1NC(=O)COc1cccc2cccnc12 = YES
• O=C(Nc1nnc(-c2ccco2)o1)c1ccc(S(=O)(=O)N2CCOCC2)cc1 = NO
• O=C(Cc1ccc2c(c1)CCCC2)Nc1ccccc1Cl = NO
• Cc1cc(N2CCN(Cc3ccc4c(c3)OCO4)CC2)n2ncnc2n1 = NO
• CCOc1cc(N2CCOCC2)c(OCC)cc1NC(=O)c1cc(C)nc2ccccc12 = NO
• O=C(N/N=C/c1ccccc1O)/C(=C/c1ccccc1)CCO = YES
• Cc1ccc(S(=O)(=O)NNC(=S)NC(C)(C)C)cc1 = NO
• COc1ccc(OCCC(=O)c2ccc(OC)cc2)cc1 = NO
• Nc1nnc(SCC(=O)NC2CCCc3ccccc32)s1 (centres undefined) = NO
• COc1ccc(OC)c(C(=O)CSc2nnc(-c3cccs3)o2)c1 = NO
• O=C(Nc1ccc(N2CCN(C(=O)c3ccccc3)CC2)c(Cl)c1)c1ncn[nH]1 = NO
• O=C(CCCCCNC(=O)c1ccccc1)N/N=C/c1ccccc1 = NO
• O=C(CSc1nc(-c2ccco2)cc(C(F)(F)F)n1)N1CCc2ccccc2C1 = NO
• Cc1cc(C(=O)CSc2nc(N)cc(=O)[nH]2)c(C)n1Cc1ccco1 = NO
• O=C(Nc1ccc(N2CCOCC2)nc1)c1c(F)cccc1F = NO
• CC(C)(C)n1cnnc1Sc1ccc([N+](=O)[O-])cn1 = NO
• CCOc1ccc(NC(=O)CCC(=O)N/N=C/c2ccc([N+](=O)[O-])s2)cc1 = NO
• O=C(CSc1ncn[nH]1)Nc1ccnc2ccccc12 = YES
• Cc1ccc2c(c1)c1ncn(Cc3ccc(F)cc3)c(=O)c1n2C = NO
• CC(C)(C)c1cc(C(=O)N/N=C/c2ccc([N+](=O)[O-])s2)n[nH]1 = NO
• CC(=O)Nc1ccc(/C=C/C(=O)c2ccccc2)cc1 = NO
• COc1ccc(-c2cc(C(F)(F)F)nc(S(C)(=O)=O)n2)cc1OC = YES
• COC(=O)c1cc(NC(=O)c2cccnc2)ccc1N1CCOCC1 = NO
